# credit: PubChem BioAssay AID1159580

- experiment: chemical genetic growth profiling, strain panel (AID 1159580);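 also: tested at 20 µM; growth read once vehicle control cultures reached saturation at 30 °C; 1 = growth at the plate median or of vehicle wells; lower values mean less growth of the strain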
- condition.set: S. cerevisiae deletion strains, growth OD, locus YNL271C, strain bni1, hits give low values
Out of some 5,500 compounds screened, about 2,000 (36%) were called active. Inconclusive results (about 18%) are left out. The list shows a part of the results.
value.kind: normalized growth
The answer should be a number; do not append a unit.

Some compounds with recorded normalized growth:
compound	normalized growth
CN(C)[C@@H]1C(=O)C(C(N)=O)=C(O)[C@@]2(O)C(=O)C3=C(O)c4c(O)ccc(Cl)c4[C@@H](O)[C@H]3C[C@@H]12	0.983
CC(C)CCCC(C)[C@H]1CCC2C3CC=C4CC(=O)CC[C@]4(C)C3CC[C@@]21C (stereo partly specified)	0.977

Enquiry: Report normalized growth for C[C@H]1c2cccc(O)c2C(O)=C2C(=O)[C@]3(O)C(O)=C(C(N)=O)C(=O)[C@@H](N(C)C)[C@@H]3[C@@H](O)[C@@H]21 please.
Return: 0.981

Enquiry: Further, for COC(=O)c1c(OC)cc2c(c1C)Oc1c(Cl)c(O)c(Cl)c(C)c1C(=O)O2 ?
Return: 0.985

Enquiry: Same thing, different compound: CC(C)CCCC(C)C1CCC2C3CC[C@H]4C[C@@H](O)CC[C@]4(C)C3CC[C@]12C (stereo partly specified)
Return: 1.01

Enquiry: Same for CC[N+](C)(C)c1cccc(O)c1
Return: 0.977

Enquiry: And CN(C)c1ccc(O)c2c1C[C@H]1C[C@H]3[C@H](N(C)C)C(=O)C(C(N)=O)=C(O)[C@@]3(O)C(=O)C1=C2O ?
Return: 0.989

Enquiry: Now try COC(=O)/C(=C1\OC(=O)C(c2ccccc2)=C1O)c1ccccc1 .
Return: 0.986

Enquiry: # iterate: CC(C)CC1NC(=O)CNC1=O (stereo unspecified)
Return: 0.983

Enquiry: Quick one: NS(=O)(=O)c1cc2c(cc1Cl)NC(CSCc1ccccc1)=NS2(=O)=O
Return: 0.998

Enquiry: Same again, this time with CC(C)CCCC(C)C1CCC2C3=CC[C@H]4C[C@@H](O)CC[C@]4(C)C3CC[C@@]21C (stereo partly specified)
Return: 0.994
